Numbers sourced from ChEMBL document CHEMBL2401698.

# system_tested: Adenosine receptor A1 (Mus musculus)
# Sequence (Q60612 whole entry): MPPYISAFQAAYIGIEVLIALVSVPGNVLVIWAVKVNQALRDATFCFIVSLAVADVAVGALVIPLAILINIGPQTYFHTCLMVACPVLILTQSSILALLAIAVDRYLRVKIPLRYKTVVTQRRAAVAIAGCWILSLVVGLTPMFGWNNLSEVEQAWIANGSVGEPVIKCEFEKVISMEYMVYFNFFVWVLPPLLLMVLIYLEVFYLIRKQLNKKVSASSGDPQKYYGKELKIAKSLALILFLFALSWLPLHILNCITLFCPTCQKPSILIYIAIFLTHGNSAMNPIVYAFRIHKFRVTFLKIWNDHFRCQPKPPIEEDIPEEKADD
# method_summary: Partial agonist activity at mouse adenosine A1 receptor expressed in HEK293 cell membranes assessed as inhibition of forskolin-stimulated cAMP production preincubated for 30 mins prior to forskolin-treatment measured after 15 mins by ELISA
# Assay type: functional, cell-based
readout_type: pEC50
Give bare numbers, as −log10 of the molar value.

Find the measured pEC50 of CNC(=O)[C@@]12C[C@@H]1[C@@H](n1cnc3c(NCc4cccc(Cl)c4)nc(C#Cc4ccc(S(=O)(=O)O)cc4)nc31)[C@H](O)[C@@H]2O and report it.
6.31

###

# system_tested: UniProt:Q60612
# method_summary: Displacement of [125I]N6-(4-amino-3-iodobenzyl)adenosine-5'-N-methyluronamide from mouse adenosine A1 receptor expressed in HEK293 cell membranes at 10 uM after 60 mins by liquid scintillation counting analysis relative to control
Rule: inhibition of 20% or more gives Fulfilled; anything lower gives Not fulfilled.

Use the examples below as a reference point.
structure_string: O=S(=O)(O)c1ccc(CCNc2nc(C#Cc3ccccc3)nc3c2ncn3[C@H]2[C@H](O)[C@H](O)[C@@H]3C[C@@H]32)cc1
discrete_label: Not fulfilled
//
structure_string: CNC(=O)[C@@]12C[C@@H]1[C@@H](n1cnc3c(NCCc4ccccc4)nc(C#Cc4ccccc4)nc31)[C@H](O)[C@@H]2O
discrete_label: Fulfilled
//
structure_string: CNC(=O)[C@@]12C[C@@H]1[C@@H](n1cnc3c(NCc4cccc(Cl)c4)nc(C#Cc4cccc(S(=O)(=O)O)c4)nc31)[C@H](O)[C@@H]2O
discrete_label: Not fulfilled

Please tell me: is the compound CCNc1nc(C#Cc2ccccc2)nc2c1ncn2[C@H]1[C@H](O)[C@H](O)[C@@H]2C[C@@H]21 at or over 20% in terms of inhibition?
Fulfilled

Given the entry CNC(=O)[C@@]12C[C@@H]1[C@@H](n1cnc3c(NCCc4ccc(S(=O)(=O)O)cc4)nc(C#Cc4ccccc4)nc31)[C@H](O)[C@@H]2O , answer whether its inhibition meets or surpasses 20%.
Not fulfilled

Confirm if inhibition reported for the compound CCNc1nc(C#Cc2ccccc2Cl)nc2c1ncn2[C@H]1[C@H](O)[C@H](O)[C@@H]2C[C@@H]21 is 20% or above.
Fulfilled

Does O[C@@H]1[C@H](O)[C@@H]2C[C@@H]2[C@H]1n1cnc2c(NCC(c3ccccc3)c3ccccc3)nc(C#Cc3ccccc3Cl)nc21 have a reported inhibition of at least 20%?
Fulfilled
